tested on: Escherichia coli TOP10; experiment: shrunken log2 fold change of peptide-encoding DNA abundance (4.5 h post-induction vs induction); higher = less antimicrobial activity (less host growth inhibition); conditions: time post-induction: 4.5 h; library: site-saturation at positions 5, 18, 19, 20;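 further: peptides expressed intracellularly from a pBAD plasmid library in pooled LB shake-flask culture, induced with 0.3% L-arabinose, DNA abundance read by NGS, three biological replicates, DESeq2 with apeglm shrinkage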
Please enter 1 (yes) where shrunken log2 fold change is greater than or equal to -0.01, and 0 (no) where it is lower.

These solved cases illustrate the format of a correct answer.
RRIRHRPPRLPRPRPRPKPWPRP 1 (yes)
RRIRTRPPRLPRPRPRPRVFPRP 1 (yes)
RRIRWRPPRLPRPRPRPMKVPRP 1 (yes)
RRIRERPPRLPRPRPRPAMLPRP 0 (no)
RRIRWRPPRLPRPRPRPHCFPRP 0 (no)
RRIRGRPPRLPRPRPRPHRFPRP 1 (yes)

Say whether `RRIRVRPPRLPRPRPRPISEPRP` shows shrunken log2 fold change of -0.01 or more. 0 (no)

State whether the measured shrunken log2 fold change reaches -0.01, counting equality as reaching it, for `RRIRSRPPRLPRPRPRPRNYPRP` 0 (no)

State whether the measured shrunken log2 fold change reaches -0.01, counting equality as reaching it, for `RRIRCRPPRLPRPRPRPFTIPRP` 0 (no)

Item `RRIRRRPPRLPRPRPRPWFRPRP` with shrunken log2 fold change of -0.01 or above? 1 (yes)
